# Target: T1, human Sdc2 (human, UniProt P34741 19-144, limits assumed)
# T1 construct: Antigen of the Octet tandem binning, loaded on biosensors at 100 nM; also called huSdc2; hSdc2
# T1 sequence (P34741 19-144 limits assumed): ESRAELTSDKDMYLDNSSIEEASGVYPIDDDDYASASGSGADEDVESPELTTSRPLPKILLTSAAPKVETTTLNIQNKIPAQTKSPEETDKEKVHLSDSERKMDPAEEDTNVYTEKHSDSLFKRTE
# Experimental Protocol: Octet tandem binning; saturating Ab m5 19844-R4M-P3-A12 (row boxed, self-self >0.09)
Decide using raw competing-Ab binding signal: a value greater than or equal to 0.4 is 1 (yes), a smaller one is 0 (no).

{"Binder": "R3-P3-E09 (antibody, human IgG1, kappa, V domains shown, human IgG1 kappa from the phage campaign) VH: EVQLVETGGGVVQPGRSLTLSCGASEFTFSNYAMHWVRQAPGKGLEWVAVISYDGTKKYYGDSVKGRFTISRENIKNTLYLQMNSLRSEDTAVYYCARDVGKGVTATGTFDIWGQGTMVTVSS VL: AIRMTQSPSSLSASVGDRVTITCRASQGIGSYLAWFQQKPGEAPKSLIIDATRLKSGVPSRFSGSGSGTEFALTISSLRPEDFATYYCQQYNVSPLTFGGGTKVEIKR", "Class Label": "0 (no)"}
{"Binder": "R3-P3-C11 (antibody, human IgG1, kappa, V domains shown, human IgG1 kappa from the phage campaign) VH: EVQLVESGGGLVQPGRSLRLACEASGFTFNNYAVHWVRQAPGKGLEWVAVISYDGTNKYYSDSMKGRFTISRDNSKNTLYLQINSLRVEDTAVYFCARGNYVRRDSFDIWGQGTMVTVSS VL: DIQMTQSPPSLSASVGDRVTITCRASQSISSYLNWYQQKPGKAPKLLIYGASSLQSGVPLRFSGSGSGADFTLTISSLQPEDFATYYCQQSYISPITFGQGTRLEIKR", "Class Label": "1 (yes)"}
{"Binder": "8-G17-A (antibody, V domains shown, PentaMice hybridoma clone, made recombinantly in CHO cells) VH: EVQLVESGGGLVKPGGSLKLSCEASGITFSNYVMSWVRQTPEKRLEWVATISDGGSYTYYPDNLKGRFTISRDNAKNNLYLQMSHLKSEDTAMYYCVRDRYDYDGRVYAMDYWGQGTSVTVSS VL: DVVMTQTPLSLPVSLGDQASISCRSSQSLVHSNGNTYLHWYLQKPGQSPKLLIYKVSNRFSGVPDRFSGSGSGTDFTLKITRVEAEDLGVYFCSQSTHVPWTFGGGTKLEIKR", "Class Label": "1 (yes)"}
{"Binder": "R4M-P1-A10 (antibody, human IgG1, kappa, V domains shown) VH: EVQLVETGGGVVQPGRSLRLSCAASGFTFSSYAMHWVRQAPGKGLEWVAVISYDGSNKYYADSVKGRFTISRDNSKNTLYLQMNSLRAEDTAVYYCARDRGWADAFDIWGQGTMVTVSS VL: QAGLTQPPSVSKGLRQTATLTCTGNSNNVGYQGAVWLLQYQGHPPKVLSNRNNDRPSGISERLSASRSGNTASLTITGLQPEDEGDYFCAAWDGSLRGWVFGGGTKLTVLR", "Class Label": "0 (no)"}
{"Binder": "R4M-P3-E06 (antibody, human IgG1, kappa, V domains shown, human IgG1 kappa from the phage campaign) VH: EVQLVESGGGVVQPGGSLRLSCAASGFTFSNYGMHWVRQAPGKGLEWVATISYDGTKKYYPDSVRGRFTISRDNSENMLYLQMDSLRLEDTAVIYCAKDLVSGSRYGFAFDSWGPGTLVTVSS VL: DIVMTQSPLSLPVTLGQPASISCRSSQSLVHSDGNTYLNWFQQRPGQSPRRLIYKVSNRDSGVPDRFSGTGSGTDFTLKISRVEADDVGVYYCMQGTHWPPIFGQGTRLEIKR", "Class Label": "0 (no)"}
{"Binder": "19838-6-N03-A (antibody, IgG1, V domains shown) VH: EVQLVESGGGLVKPGGSLKLSCEASGITFSNYVMSWVRQTPEKRLEWVATISDGGSYTYYPDNVKGRFTISRDNAKNNLYLQMSHLKSEDTAMYYCVRDRYDYDGRVYAMDYWGQGTSVTVSS VL: DVVMTQTPLSLPVSLGDQASISCRSSQSLVHSNGDTYLHWYLQKPGQSPKLLIYKVSNRFSGVPDRFSGSGSGTDFTLKITRVEAEDLGVYFCSQSTHVPWTFGGGTKLEIKR", "Class Label": "1 (yes)"}
